Catalogue of binders with associated EC50
# assay-target: T1, human RAGE expressed on CHO cells (human, UniProt Q15109 23-404)
# T1 construct: whole, on cells; also called CHO-RAGE cells; cell surface expressed human RAGE
# T1 sequence (Q15109 23-404): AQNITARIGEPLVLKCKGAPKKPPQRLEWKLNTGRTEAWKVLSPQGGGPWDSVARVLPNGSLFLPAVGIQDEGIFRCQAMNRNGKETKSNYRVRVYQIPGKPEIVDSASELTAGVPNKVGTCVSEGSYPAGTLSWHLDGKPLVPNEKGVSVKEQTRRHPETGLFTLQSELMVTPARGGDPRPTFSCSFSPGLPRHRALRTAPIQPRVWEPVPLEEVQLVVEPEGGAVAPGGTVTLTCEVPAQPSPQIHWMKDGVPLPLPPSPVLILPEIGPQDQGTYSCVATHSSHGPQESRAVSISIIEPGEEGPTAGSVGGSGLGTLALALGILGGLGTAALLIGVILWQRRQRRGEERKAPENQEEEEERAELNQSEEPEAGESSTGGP
# method: cell ELISA on CHO-RAGE cells, A450 corrected for control CHO cells
Give the value; after it, write the unit.

IN: Look up EC50: 6B2 scFv-Fc fusion (Fc fusion, Substitutions derived from the printed HCDR3; not shown: wild-type human IgG Fc (hinge and constant domains)) DIQMTQSPSSLSASVGDRVTITCRASQDVGIYVNWFQQKPGKAPRRLIYRATNLADGVPSRFSGSRSGTDFTLTISSLQPEDFATYYCLEFDEHPLTFGGGTKVEIKDGGGSGGGGSGGGGSSEVQLVESGGGLVQPGGSLRLSCAASGFTFNNYWMTWVRQAPGKGLEWVASIDNSGDNTYYPDSVKDRFTISRDNAKNSLYLQMNSLRAEDTAVYYCARGGDIRVGLDVWGQGTLVTVSS
OUT: 0.0816 µg/mL
